B1: LCOR (parent)
chain: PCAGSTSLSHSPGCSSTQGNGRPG

- Variants of: B1
- Method Notes: protein stability index of a GFP-peptide fusion (GPS, HEK-293T) (PSI 1-6); higher = more stable;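 note: lentivirally expressed fusions sorted by FACS into six bins by GFP to DsRed ratio, PSI derived from sequencing read proportions per bin multiplied by bin number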
- Assay Conditions: c terminus: a fixed tail appended
So basically every entry gets a class from its protein stability index, ranges being b0 = under 3, b1 = from 3 up to 4, b2 = 4 and over

- Variant Description: "G13C"
  Assigned Label: "b0"
- Variant Description: "S5F"
  Assigned Label: "b1"
- Variant Description: "S5Y"
  Assigned Label: "b0"
- Variant Description: "R22M"
  Assigned Label: "b1"
- Variant Description: "S15F"
  Assigned Label: "b0"

Would you mind sorting G4E into the appropriate category?
b2

Please indicate the class for A3E based on its protein stability index.
b0

Category of G13Q :
b0

Form field 'band' for G21W
b0

Classify this variant: G21T
b0

Please let me know in which category the item P23T belongs.
b1

Assign a category based on measured protein stability index for G13D and give only the class name.
b1

For this variant, which bin applies? S9P
b1
